Biological target: catalytic domain of human Bub1 (amino acids 704-1085) (Homo sapiens, UniProt O43683)
Sequence (O43683 704-1085): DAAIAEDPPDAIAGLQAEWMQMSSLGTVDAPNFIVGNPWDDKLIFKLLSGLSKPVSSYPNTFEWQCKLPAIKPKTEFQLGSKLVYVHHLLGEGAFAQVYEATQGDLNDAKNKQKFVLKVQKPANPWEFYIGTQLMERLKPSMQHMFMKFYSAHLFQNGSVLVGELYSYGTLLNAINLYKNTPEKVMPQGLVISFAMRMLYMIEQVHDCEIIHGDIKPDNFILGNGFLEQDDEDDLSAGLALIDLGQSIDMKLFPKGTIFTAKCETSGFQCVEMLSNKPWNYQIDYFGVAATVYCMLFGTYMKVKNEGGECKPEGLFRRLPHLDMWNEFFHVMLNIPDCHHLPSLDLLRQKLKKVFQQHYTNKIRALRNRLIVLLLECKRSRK
PROPERTY NAME: pIC50
Conceptually, pIC50 converts a concentration in mol/L into minus its log10.

Query: Can you look up pIC50 on catalytic domain of human Bub1 (amino acids 704-1085) (Homo sapiens, UniProt O43683) for Fc1ccccc1Cn1nc(-c2nsc(Nc3ccncc3)n2)c2ccccc21 ?
Result: 5.66

Query: Return pIC50 measured with catalytic domain of human Bub1 (amino acids 704-1085) (Homo sapiens, UniProt O43683) given this compound: CCOc1cc(F)c(Cn2nc(-c3cc(Nc4ccncn4)n(CC(=O)O)n3)c(C)c2C2CC2)c(F)c1
Result: 5.96

Query: Write down the reported pIC50 of CCOC(=O)c1cnccc1Nc1nc(-c2nn(Cc3c(F)cc(OCC)cc3F)c(C3CC3)c2C)nn1CCOC , test system: catalytic domain of human Bub1 (amino acids 704-1085) (Homo sapiens, UniProt O43683).
Result: 7.04

----------
Tested on: HeLa human cervical cancer cell line
Assay: Proliferation assay (HeLa cell line), crystal violet staining
Format: cell-based
Details: 96 h, HeLa cells, 4 days incubation, read-out: Biological Assay 2: Proliferation assay (HeLa cell line) median IC50
PROPERTY NAME: IC50

Query: Which IC50 is listed for CCOc1cc(F)c(Cn2nc(-c3nc(Nc4ccncc4)n(CCO)n3)c(C)c2C2CC2)c(F)c1 ?
Result: > 10 µM

Query: Which IC50 is reported for this compound? CCOc1cc(F)c(Cn2nc(-c3cc(Nc4ccncc4)n(C)n3)c(C)c2C2CC2)c(F)c1
Result: 3.5 µM

Query: Endpoint output: IC50 of CCOc1cc(F)c(Cn2nc(-c3cc(Nc4ccncn4)n(CC(=O)O)n3)c(C)c2C2CC2)c(F)c1 . Value?
Result: > 10 µM

Query: May I ask what IC50 has been recorded for CCOc1cc(F)c(Cn2nc(-c3nc(Nc4ccncc4)n(CCOC)n3)c(C)c2C2CC2)c(F)c1 ?
Result: > 10 µM

Query: Suppose we examine the compound CCOc1cc(F)c(Cn2nc(-c3cc(Nc4ccncn4)n(C(C)=O)n3)c(C)c2C2CC2)c(F)c1 ; what IC50 value has been reported?
Result: > 10 µM

Query: Can you look up the measured IC50 of Fc1ccccc1Cn1nc(-c2nsc(Nc3ccncc3)n2)c2ccccc21 for me?
Result: 9.1 µM

Query: May I ask what IC50 has been recorded for CCOc1cc(F)c(Cn2nc(-n3cc(Nc4ccncn4)cn3)c3ccccc32)c(F)c1 ?
Result: > 10 µM
